The values you see were collected from patent US20240180882A1.

- Method Notes: Drug distribution of Compound 1 in mouse plasma, brain and perilymph after oral dosing
- Type: in vivo
- Reported Conditions: perilymph, 2 h after a 300 mg/kg p.o. dose, read-out: Perilymph level of Compound 1
- Experimental: Complete ADME and PK assessment of Compound 1 and Compound 2 at several doses by oral and intratympanic (IT) dosing in wild-type mice and in transgenic efflux-pump knock-out mice to benchmark compound exposure. […] Drug distribution of Compound 1 in a mouse was determined after dosing at 300 mg/kg.
Measurement Kind: concentration at 2 h (nM)
Value expressed in nM; do not type the unit.

Problem: # query: concentration at 2 h of entry O[C@@H]1CO[C@H]2[C@@H]1OC[C@H]2Oc1nc2nc(-c3ccc(-c4ccccc4)cc3)c(Cl)cc2[nH]1 [Compound 1]
Solution: 870

----------
- Method Notes: Drug distribution of Compound 1 in mouse plasma, brain and perilymph after oral dosing
- Type: in vivo
- Reported Conditions: brain, 2 h after a 300 mg/kg p.o. dose, read-out: Brain level of Compound 1
Measurement Kind: concentration at 2 h (µM)
# value in µM; strip the unit string

Problem: For the molecule shown here, O[C@@H]1CO[C@H]2[C@@H]1OC[C@H]2Oc1nc2nc(-c3ccc(-c4ccccc4)cc3)c(Cl)cc2[nH]1 [Compound 1] , give the reported concentration at 2 h.
Solution: 45

----------
- Method Notes: PAMPA permeability
- Assay type: in vitro ADME
Measurement Kind: Papp (nm/s)
Please state the figure in nm/s; there is no need to write the unit.

Problem: I would be grateful if you could share the reported Papp for `O[C@@H]1CO[C@H]2[C@@H]1OC[C@H]2Oc1nc2nc(-c3ccc(-c4ccccc4)cc3)c(Cl)cc2[nH]1` .
Solution: 240
